Ref: ChEMBL document CHEMBL5241054

Measured pIC50 on Aromatase (Homo sapiens) follows.
pIC50: −log10 of the molar value.

{"INPUT SMILES": "C[C@]12CC[C@H]3[C@@H](CCC4=CC(=O)CC[C@@]43CF)[C@@H]1CCC2=O", "pIC50": 5.52}
{"INPUT SMILES": "C[C@]12CCC(=O)C=C1C[C@@H](CCc1ccccc1)[C@@H]1[C@@H]2CC[C@]2(C)C(=O)CC[C@@H]12", "pIC50": 6.86}
{"INPUT SMILES": "C[C@]12CC[C@H]3[C@@H](C(=O)C=C4C=CCC[C@@]43CO)[C@@H]1CCC2=O", "pIC50": 4.22}
{"INPUT SMILES": "CCCCC[C@H]1C[C@@H]2[C@H](CC[C@]3(C)C(=O)CC[C@@H]23)[C@@]2(C)CCC(=O)C=C12", "pIC50": 6.40}
{"INPUT SMILES": "C[C@]12CC[C@H]3[C@@H](C=CC4=CC(=O)C=C[C@@]43CI)[C@@H]1CCC2=O", "pIC50": 5.33}
{"INPUT SMILES": "CC[C@]12C=CC(=O)C=C1C=C[C@H]1[C@@H]3CCC(=O)[C@@]3(C)CC[C@@H]12", "pIC50": 6.44}
{"INPUT SMILES": "C[C@]12C[C@@H](Cc3ccccc3)C(=O)C=C1CC[C@@H]1[C@@H]2CC[C@]2(C)C(=O)CC[C@@H]12", "pIC50": 3.33}
{"INPUT SMILES": "C[C@]12C=CC(=O)C=C1C(Cc1ccccc1)=C[C@@H]1[C@@H]2CC[C@]2(C)C(=O)CC[C@@H]12", "pIC50": 7.03}
{"INPUT SMILES": "CCC1=C[C@@]2(C)C(=CC1=O)CC[C@@H]1[C@@H]2CC[C@]2(C)C(=O)CC[C@@H]12", "pIC50": 6.02}
{"INPUT SMILES": "C[C@]12CCC(=O)C(Sc3ccccc3)=C1C=C[C@@H]1[C@@H]2CC[C@]2(C)C(=O)CC[C@@H]12", "pIC50": 7.60}
{"INPUT SMILES": "C[C@]12CC[C@H]3[C@@H](CCC4=CCCC[C@@]43CO)[C@@H]1C[C@@H](O)[C@@H]2O", "pIC50": 3.01}
{"INPUT SMILES": "CCC[C@H]1C[C@@H]2[C@H](CC[C@]3(C)C(=O)CC[C@@H]23)[C@@]2(C)CCC(=O)C=C12", "pIC50": 6.41}
{"INPUT SMILES": "COC1=C[C@@]2(C)C(=CC1=O)CC[C@@H]1[C@@H]2CC[C@]2(C)C(=O)CC[C@@H]12", "pIC50": 5.96}
{"INPUT SMILES": "C[C@H]1C[C@@H]2[C@H](CC[C@]3(C)[C@@H](O)CC[C@@H]23)c2ccc(O)cc21", "pIC50": 4.72}
{"INPUT SMILES": "CC1(C)C[C@@]2(C)C(=C(O)C1=O)C(=O)C[C@@H]1[C@@H]2CC[C@]2(C)C(=O)CC[C@@H]12", "pIC50": 6.36}

* * *

Target: Aromatase (Homo sapiens, UniProt P11511)
Sequence (P11511 whole entry): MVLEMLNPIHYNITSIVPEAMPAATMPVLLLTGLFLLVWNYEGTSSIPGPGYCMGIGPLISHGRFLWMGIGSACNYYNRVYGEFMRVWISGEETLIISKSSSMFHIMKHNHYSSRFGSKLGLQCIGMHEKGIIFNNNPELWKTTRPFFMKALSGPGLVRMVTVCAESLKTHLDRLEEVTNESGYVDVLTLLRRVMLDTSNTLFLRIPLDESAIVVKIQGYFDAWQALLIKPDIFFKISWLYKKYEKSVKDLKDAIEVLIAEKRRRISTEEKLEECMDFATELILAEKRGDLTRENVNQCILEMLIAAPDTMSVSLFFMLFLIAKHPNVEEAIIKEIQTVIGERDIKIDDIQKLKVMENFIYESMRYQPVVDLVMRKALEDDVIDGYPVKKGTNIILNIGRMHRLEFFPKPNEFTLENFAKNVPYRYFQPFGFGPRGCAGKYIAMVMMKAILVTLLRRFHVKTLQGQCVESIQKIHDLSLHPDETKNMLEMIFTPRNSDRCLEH
Values of IC50 strictly less than 4 µM map to yes, and values of at least 4 µM map to no.

{"INPUT SMILES": "COC1=C[C@@H]2[C@H](CC[C@]3(C)C(=O)CC[C@@H]23)[C@@]2(C)CCC(=O)C=C12", "LABEL VALUE": "yes"}
{"INPUT SMILES": "COc1ccc([C@@H]2[C@H]3C[C@H]4[C@@H]5CC[C@H]6C[C@@H](OC(=O)C(F)(F)F)CC[C@]6(C)[C@H]5CC[C@]4(C)C3=NN2C(C)=O)cc1", "LABEL VALUE": "no"}
{"INPUT SMILES": "COc1ccc([C@@H]2[C@H]3C[C@H]4[C@@H]5CCC6=CC(=O)C=C[C@]6(C)[C@H]5CC[C@]4(C)C3=NN2C(C)=O)cc1", "LABEL VALUE": "yes"}
{"INPUT SMILES": "CCCCCCC(=O)O[C@@H]1C[C@@H]2[C@H](CC[C@]3(C)C(=O)CC[C@@H]23)[C@@]2(C)CCC(=O)C=C12", "LABEL VALUE": "yes"}
{"INPUT SMILES": "CCCCO[C@H]1C[C@@H]2[C@H](CC[C@]3(C)C(=O)CC[C@@H]23)[C@@]2(C)CCC(=O)C=C12", "LABEL VALUE": "yes"}
{"INPUT SMILES": "CO[C@H]1C[C@@H]2[C@H](CC[C@]3(C)C(=O)CC[C@@H]23)[C@@]2(C)CCC(=O)C=C12", "LABEL VALUE": "yes"}
{"INPUT SMILES": "C[C@@H]1C[C@@]2(CO)C(=CC1=O)CC[C@@H]1[C@@H]2CC[C@]2(C)C(=O)CC[C@@H]12", "LABEL VALUE": "no"}
{"INPUT SMILES": "CCCO[C@H]1C[C@@H]2[C@H](CC[C@]3(C)C(=O)CC[C@@H]23)[C@@]2(C)CCC(=O)C=C12", "LABEL VALUE": "yes"}
{"INPUT SMILES": "CN1N=C2[C@H](C[C@H]3[C@@H]4CC[C@H]5C[C@@H](O)CC[C@]5(C)[C@H]4CC[C@]23C)[C@H]1c1ccccc1", "LABEL VALUE": "no"}
{"INPUT SMILES": "CCC(=O)N1N=C2[C@H](C[C@H]3[C@@H]4CC[C@H]5C[C@@H](OC(=O)C(F)(F)F)CC[C@]5(C)[C@H]4CC[C@]23C)[C@H]1c1ccccc1", "LABEL VALUE": "no"}
{"INPUT SMILES": "CC(=O)O[C@@H]1C[C@@H]2[C@H](CC[C@]3(C)C(=O)CC[C@@H]23)[C@@]2(C)C=CC(=O)C=C12", "LABEL VALUE": "no"}
{"INPUT SMILES": "C[C@]12C=CC(=O)C=C1[C@H](OCc1ccccc1)C[C@@H]1[C@@H]2CC[C@]2(C)C(=O)CC[C@@H]12", "LABEL VALUE": "yes"}
{"INPUT SMILES": "COC1=C[C@@H]2[C@H](CC[C@]3(C)C(=O)CC[C@@H]23)[C@@]2(C)C=CC(=O)C=C12", "LABEL VALUE": "yes"}
